Procedure Details: Volume of distribution in Sprague Dawley rats as a solution in water at 1 mg/kg, iv and 20 mg/kg, po.
Format: ADME, organism-based
Condition Context: rat, in vivo, read-out: Vdss

>  <Structure Smiles String>
CN1C[C@H]2CC[C@@H]1[C@H](C(=O)N[C@H](Cc1ccc(F)cc1)C(=O)N1CCC(C(=O)NC(C)(C)C)(C3CCCCC3)CC1)C2

>  <Quantity Unit>
L/kg

>  <Vd>
9.6

$$$$
